target: Motilin Receptor (Oryctolagus cuniculus); construct: strips of longitudinal smooth muscle were sliced from the segments; from tissue; host or cells: rabbit duodenum longitudinal smooth muscle strips; test: Tissue based assay for motilin agonist potency (rabbit duodenum contractility); type: cell-based; details: rabbit duodenum strips, contraction normalized to 1 μM carbachol; read-out: Motilin Receptor Agonist Activity (EC50)
Sequence (G1T803 1-400): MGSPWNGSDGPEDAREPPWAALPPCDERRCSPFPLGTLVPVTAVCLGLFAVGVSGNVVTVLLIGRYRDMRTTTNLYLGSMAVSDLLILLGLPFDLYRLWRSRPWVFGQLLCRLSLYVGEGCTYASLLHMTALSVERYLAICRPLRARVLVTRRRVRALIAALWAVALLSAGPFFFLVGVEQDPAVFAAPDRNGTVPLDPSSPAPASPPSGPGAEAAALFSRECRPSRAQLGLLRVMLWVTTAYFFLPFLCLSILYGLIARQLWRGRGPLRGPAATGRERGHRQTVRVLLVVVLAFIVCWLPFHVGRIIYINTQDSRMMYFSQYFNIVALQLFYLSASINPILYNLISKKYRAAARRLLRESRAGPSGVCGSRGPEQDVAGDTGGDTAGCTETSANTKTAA
pEC50: −log10 of the molar value.
value-kind: pEC50

(I) CC[C@H]1OC(=O)[C@H](C)[C@@H](O[C@H]2C[C@@](C)(OC)[C@@H](O)[C@H](C)O2)[C@H](C)[C@@H](O[C@@H]2O[C@H](C)C[C@H](N(C)C3CCC3)[C@H]2O)[C@](C)(O)C[C@@H](C)[C@H](OCC(=O)NC)[C@H](C)[C@@H](O)[C@]1(C)O
(II) CC[C@H]1OC(=O)[C@H](C)[C@@H](O[C@H]2C[C@@](C)(OC)[C@@H](O)[C@H](C)O2)[C@H](C)[C@@H](O[C@@H]2O[C@H](C)C[C@H](N(C)C(C)C)[C@H]2O)[C@](C)(O)C[C@@H](C)[C@H](OCC(=O)NCC(F)(F)F)[C@H](C)[C@@H](O)[C@]1(C)O
(III) CC[C@H]1OC(=O)[C@H](C)[C@@H](O[C@H]2C[C@@](C)(OC)[C@@H](O)[C@H](C)O2)[C@H](C)[C@@H](O[C@@H]2O[C@H](C)C[C@H](N(C)C(C)C)[C@H]2O)[C@](C)(O)C[C@@H](C)[C@H](OCCO)[C@H](C)[C@@H](O)[C@]1(C)O
[Q] Order all 3 entries above by recorded pEC50, highest first, lowest last. Submit the labels in the order that the ranking request calls for.
[A] III, II, I
